Exercise: state measured protein stability index for each of the sequences provided.
System: Saccharomyces cerevisiae
Experiment: protein stability index of tFT-peptide fusion (C-terminal peptide) (PSI (0-1 scale)); higher = more stable (slower turnover)
Settings: genetic background: wild type; temperature: 30 C
Give the value as a plain number.

State its protein stability index: `LETEVDIYWLYR` 0.605

State its protein stability index: `PSVPPLQPPHSV` 0.697

State its protein stability index: `PGGAGKAYGSRL` 0.707

State its protein stability index: `VAESPGWAAGVD` 0.689

State its protein stability index: `DIGSSGRVGGLG` 0.712

State its protein stability index: `LWFRCVRMQACR` 0.507

State its protein stability index: `PPSSFHFVVPHP` 0.684

State its protein stability index: `PPHLSPPPPPLL` 0.699

State its protein stability index: `QIKGNNLNIDKG` 0.672

State its protein stability index: `KKKKKVKITGKK` 0.766

State its protein stability index: `FECDYLLCGAGL` 0.744

State its protein stability index: `GRCRALVARGGH` 0.76

State its protein stability index: `WGRGRWEMVGRT` 0.693

State its protein stability index: `VIRSIVSAYMIC` 0.293

State its protein stability index: `RGPRVVYYRLYV` 0.722

State its protein stability index: `GVWCLDVYGRRC` 0.684

State its protein stability index: `YHSSHTGEFLFL` 0.658

State its protein stability index: `SCFRSLAVYFLC` 0.155

State its protein stability index: `SKVLRRLEPTIV` 0.603

State its protein stability index: `VCKQASDSKLQG` 0.663

State its protein stability index: `GSACGSSYKWQM` 0.614

State its protein stability index: `FCDFLFVFPLFS` 0.515

State its protein stability index: `PPPPPPPPPCHL` 0.644

State its protein stability index: `LYIYSPFGLFAF` 0.562

State its protein stability index: `LPPRSRHPSPYA` 0.654

State its protein stability index: `PHAEESNSTLSP` 0.765

State its protein stability index: `GGGGVVAGVCGG` 0.667

State its protein stability index: `KHYKVDAVNIRG` 0.686

State its protein stability index: `PKTKKEKQKKKV` 0.704

State its protein stability index: `YRLVASSHLIFF` 0.661

State its protein stability index: `VVTGVRFGVGSI` 0.697

State its protein stability index: `KKKKTKKKEQKE` 0.693

State its protein stability index: `GYPLRSHCLIVD` 0.68

State its protein stability index: `WTLSGHKHIPED` 0.736

State its protein stability index: `FWWVGCGWCRWG` 0.378

State its protein stability index: `VGGGCVVVVRWG` 0.52

State its protein stability index: `SSVVPITLPAFL` 0.707

State its protein stability index: `NVIGGGRSAGLV` 0.609

State its protein stability index: `PLLLPPLPRTPF` 0.622

State its protein stability index: `YSPFGKRLLPPC` 0.702

State its protein stability index: `RPPPAAPLHITS` 0.714

* * *

Exercise: state measured protein stability index for each of the sequences provided.
Test system: Saccharomyces cerevisiae
Test: protein stability index of tFT-peptide fusion (C-terminal peptide) (PSI (0-1 scale)); higher = more stable (slower turnover)
Conditions: genetic background: das1 deletion; temperature: 30 C

State its protein stability index: HKGSTLDIMSID [QNS1 C-terminal 12 aa] 0.72

State its protein stability index: ESTPKDAARSTN [ASF1 C-terminal 12 aa] 0.69

State its protein stability index: RGRIAAQKRISA [RPL17B C-terminal 12 aa] 0.681

State its protein stability index: FSLLSFISYFLL [YPS6 C-terminal 12 aa] 0.665

State its protein stability index: ETYGSKIVYRFS [GAL10 C-terminal 12 aa] 0.692

State its protein stability index: YNKLESNLQIFM [ABZ1 C-terminal 12 aa] 0.697

Sourced from the supplement of paper PMC10724198
